Target: T1, Ssa2 (yeast (S. cerevisiae), UniProt P10592 1-639)
T1 construct: Ssa2, yeast cytosolic Hsp70; non-tagged; also called Hsp70; source: E. coli Rosetta 2(DE3), purified as described [51]
T1 sequence (P10592 whole entry): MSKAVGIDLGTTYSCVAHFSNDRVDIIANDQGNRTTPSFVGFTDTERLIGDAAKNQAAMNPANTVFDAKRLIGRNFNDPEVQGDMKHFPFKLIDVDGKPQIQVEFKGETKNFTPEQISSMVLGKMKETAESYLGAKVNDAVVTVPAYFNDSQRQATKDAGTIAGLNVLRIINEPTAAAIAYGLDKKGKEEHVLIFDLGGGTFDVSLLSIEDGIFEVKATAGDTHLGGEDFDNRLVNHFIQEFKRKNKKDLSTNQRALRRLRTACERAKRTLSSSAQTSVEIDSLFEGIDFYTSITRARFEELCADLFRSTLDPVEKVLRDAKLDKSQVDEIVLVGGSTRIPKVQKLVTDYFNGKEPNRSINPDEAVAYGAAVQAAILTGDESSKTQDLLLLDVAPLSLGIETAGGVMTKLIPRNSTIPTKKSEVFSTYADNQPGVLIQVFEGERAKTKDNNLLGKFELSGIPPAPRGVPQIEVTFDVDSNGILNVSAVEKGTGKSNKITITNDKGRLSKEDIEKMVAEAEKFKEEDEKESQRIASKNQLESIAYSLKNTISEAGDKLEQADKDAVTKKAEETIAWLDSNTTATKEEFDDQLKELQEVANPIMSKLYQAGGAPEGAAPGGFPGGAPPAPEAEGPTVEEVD
Assay: pull-down; His6-Fbp1 (wild type or mutant) pulled down on Talon metal affinity resin; reactions with two or all three proteins; 6 μg each of His6-Fbp1 (1.6 μM), Hsp70 (0.9 μM) and GST-Fes1 (1.09 μM), with or without ATP, ADP or AMP (2.5 mM); 50 mM Tris-HCl pH 7.5, 150 mM NaCl, 2% glycerol, 5 mM MgCl2; 30 min at 4°C; washed with 5 mM imidazole, eluted with 250 mM imidazole; stained SDS-PAGE gels, bands quantified …
Conditions: both partners purified
Value Kind: binding result

Challenge: Quickly give me recorded binding result for His6-Fbp1^P2A,S12A,T13A (enzyme, yeast (S. cerevisiae), UniProt P09201 1-348, looked up, Fbp1, yeast gluconeogenic enzyme, P2A,S12A,T13A; the initiator methionine is counted as residue 1; source: E. coli expression, purified; not shown: His6, N-terminal, kept) MATLVNGPRRDAAEGFDTDIITLPRFIIEHQKQFKNATGDFTLVLNALQFAFKFVSHTIRRAELVNLVGLAGASNFTGDQQKKLDVLGDEIFINAMRASGIIKVLVSEEQEDLIVFPTNTGSYAVCCDPIDGSSNLDAGVSVGTIASIFRLLPDSSGTINDVLRCGKEMVAACYAMYGSSTHLVLTLGDGVDGFTLDTNLGEFILTHPNLRIPPQKAIYSINEGNTLYWNETIRTFIEKVKQPQADNNNKPFSARYVGSMVADVHRTFLYGGLFAYPCDKKSPNGKLRLLYEAFPMAFLMEQAGGKAVNDRGERILDLVPSHIHDKSSIWLGSSGEIDKFLDHIGKSQ
Response given: binds
